The values you see were collected from ChEMBL document CHEMBL1147921.

Experiment: Permeability across human Caco-2 cell membrane
Format: ADME, cell-based
Details: read-out: permeability

>  <Smiles Code>
CC(C)(CO)Nc1nc(SCc2cccc(F)c2F)nc2nc(N)sc12

>  <Papp (×10⁻⁶ cm/s)>
3.6

$$$$

* * *

Test: Protein binding in human plasma
Format: ADME, cell-free
Conditions: read-out: PPB (converted)

>  <Smiles Code>
CC(C)(CO)Nc1nc(SCc2cccc(F)c2F)nc2nc(N)sc12

>  <fraction unbound>
0.016

$$$$

* * *

Assay: Solubility at pH 7.4
Type: physicochemical
Settings: buffer

>  <Smiles Code>
C[C@H](CO)Nc1nc(SCc2cccc(F)c2F)nc2nc(N)sc12

>  <solubility [µg/mL]>
1.5

$$$$
